Exercise: state measured LC50 TBW C (contact) for each of the compounds provided.
Tested on: Tobacco Budworm [Heliothis virescens (Fabricius)] larvae
METHOD: Tobacco budworm larvae, contact (TBW-C), 5 days
Type: in vivo
SETTINGS: percent in solution, second-instar larvae
Number in %, nothing else.

Return reported LC50 TBW C (contact); argument: CC(C)C(=Nc1ccc(Br)cc1)OCc1ccc(F)c(Oc2ccc(F)cc2)c1 0.00075

Return reported LC50 TBW C (contact); argument: CC(C)C(=Nc1ccc(F)c(Cl)c1F)OCc1cccc(Oc2ccc(F)cc2)n1 0.0005

Return reported LC50 TBW C (contact); argument: CC(C)C(=Nc1ccc(F)c(Cl)c1)OCc1cccc(Oc2ccc(F)c(F)c2)n1 0.00037

Return reported LC50 TBW C (contact); argument: CC(C)C(=Nc1ccc(OC(F)(F)F)cc1)OCc1ccc(F)c(Oc2ccc(F)cc2)c1 0.00017

Return reported LC50 TBW C (contact); argument: CC(C)C(=Nc1ccc2c(c1)OC(F)(F)O2)OCc1cccc(Oc2ccccc2)c1 0.0015

Return reported LC50 TBW C (contact); argument: CC(C)C(=Nc1ccc(F)c(C(F)(F)F)c1)OCc1cccc(Oc2ccc(F)cc2)c1 0.0025

Return reported LC50 TBW C (contact); argument: CC(C)C(=Nc1ccc2c(c1)OC(F)(F)O2)OCc1cccc(Oc2ccc(F)cc2)c1 0.00025

Return reported LC50 TBW C (contact); argument: CC(C)C(=Nc1cccc(C(F)(F)F)c1)OCc1cccc(Oc2ccc(F)cc2)c1 0.0007

Return reported LC50 TBW C (contact); argument: CC(C)C(=Nc1ccc(F)c(Cl)c1)OCc1cccc(Oc2ccccc2)n1 0.0025

Return reported LC50 TBW C (contact); argument: CC(C)C(=Nc1cccc(C(F)(F)F)c1)OCc1ccc(F)c(Oc2ccc(F)cc2)c1 0.0005

Return reported LC50 TBW C (contact); argument: CC(C)C(=Nc1c(F)c(F)c(F)c(F)c1F)OCc1cccc(Oc2ccccc2)c1 0.0025

Return reported LC50 TBW C (contact); argument: CC(C)C(=Nc1ccc(F)c(Cl)c1F)OCc1cccc(Oc2ccc(Cl)cc2)n1 0.00075

Return reported LC50 TBW C (contact); argument: CC(Cl)C(=Nc1ccc(Cl)cc1)OCc1cccc(Oc2ccccc2)c1 (centres unmarked) 0.0025

Return reported LC50 TBW C (contact); argument: CC(C)C(=Nc1ccc2c(c1)OC(F)(F)O2)OCc1cccc(Oc2ccc(Cl)cc2)c1 0.0001

Return reported LC50 TBW C (contact); argument: CC(C)C(=Nc1ccc(C(C)C)cc1)OCc1cccc(Oc2ccccc2)c1 0.006

Return reported LC50 TBW C (contact); argument: CC(C)C(=Nc1ccc(F)c(Br)c1)OCc1cccc(Oc2ccc(F)cc2)c1 0.0005

---

Test system: Maize weevil [Sitophilus zeamais (Motschulsky)]
METHOD: Maize weevil on dipped corn seeds (MW), 48 hours
Assay type: in vivo
SETTINGS: percent in solution, adult weevils
MEASURED_ATTRIBUTE: LC50 MW

// fetch Maize weevil [Sitophilus zeamais (Motschulsky)] LC50 MW for CC(C)C(=Nc1ccc(OC(F)(F)F)cc1)OCc1ccc(F)c(Oc2ccccc2)c1 0.0053%

// fetch Maize weevil [Sitophilus zeamais (Motschulsky)] LC50 MW for CC(C)C(=Nc1ccc(F)c(Br)c1)OCc1cccc(Oc2ccc(Cl)cc2)c1 > 0.01%

// fetch Maize weevil [Sitophilus zeamais (Motschulsky)] LC50 MW for CC(C)C(=Nc1ccc(OCC(F)(F)F)c(Cl)c1)OCc1cccc(Oc2ccc(F)cc2)c1 > 0.01%

// fetch Maize weevil [Sitophilus zeamais (Motschulsky)] LC50 MW for CC(C)C(=Nc1ccc(Cl)cc1)OCc1cccc(Oc2ccccc2)n1 > 0.01%

// fetch Maize weevil [Sitophilus zeamais (Motschulsky)] LC50 MW for CC(C)C(=Nc1ccc(C(F)(F)F)cc1Cl)OCc1cccc(Oc2ccc(F)cc2)c1 > 0.01%

// fetch Maize weevil [Sitophilus zeamais (Motschulsky)] LC50 MW for Cc1ccc(N=C(OCc2ccc(F)c(Oc3ccccc3)c2)C(C)C)cc1Cl > 0.01%

// fetch Maize weevil [Sitophilus zeamais (Motschulsky)] LC50 MW for FC(F)(F)Oc1ccc(N=C(OCc2cccc(Oc3ccccc3)c2)C2CC2)cc1 > 0.01%

// fetch Maize weevil [Sitophilus zeamais (Motschulsky)] LC50 MW for CC(C)C(=Nc1ccc(F)c(Cl)c1)OCc1cccc(Oc2ccc(Br)cc2)n1 > 0.01%

// fetch Maize weevil [Sitophilus zeamais (Motschulsky)] LC50 MW for CC(C)C(=Nc1ccc(F)c(Cl)c1)OCc1ccnc(Oc2ccccc2)c1 > 0.01%

// fetch Maize weevil [Sitophilus zeamais (Motschulsky)] LC50 MW for CSc1ccc(N=C(OCc2cccc(Oc3ccccc3)c2)C(C)C)cc1 > 0.01%

// fetch Maize weevil [Sitophilus zeamais (Motschulsky)] LC50 MW for CCC(C)C(=Nc1ccc(F)c(Cl)c1)OCc1cccc(Oc2ccc(F)cc2)c1 (centres unmarked) > 0.01%

// fetch Maize weevil [Sitophilus zeamais (Motschulsky)] LC50 MW for CC(C)C(=Nc1ccc(F)c(I)c1)OCc1ccc(F)c(Oc2ccccc2)c1 > 0.01%

// fetch Maize weevil [Sitophilus zeamais (Motschulsky)] LC50 MW for Cc1cccc(N=C(OCc2cccc(Oc3ccc(Cl)cc3)n2)C(C)C)c1 > 0.01%

// fetch Maize weevil [Sitophilus zeamais (Motschulsky)] LC50 MW for CC(C)C(=Nc1ccc(C#N)cc1)OCc1cccc(Oc2ccc(Cl)cc2)c1 > 0.01%

// fetch Maize weevil [Sitophilus zeamais (Motschulsky)] LC50 MW for CC(C)C(=Nc1ccc2c(c1)OC(F)(F)O2)OCc1cccc(Oc2ccccc2)c1 0.006%

// fetch Maize weevil [Sitophilus zeamais (Motschulsky)] LC50 MW for CC(C)C(=Nc1ccc(F)c(Cl)c1F)OCc1cccc(Oc2ccc(F)cc2)c1 0.0075%

// fetch Maize weevil [Sitophilus zeamais (Motschulsky)] LC50 MW for CC(C)C(=Nc1ccc(C(F)(F)F)cc1Cl)OCc1ccc(F)c(Oc2ccccc2)c1 > 0.01%

---

Test system: Tobacco Budworm [Heliothis virescens (Fabricius)] larvae
METHOD: Tobacco budworm larvae, contact (TBW-C), 5 days
Format: in vivo
SETTINGS: percent in solution, second-instar larvae
Exercise: state measured LC50 TBW C (contact) for each of the compounds provided.
Number in %, nothing else.

Return reported LC50 TBW C (contact); argument: CC(C)C(=Nc1ccc(Cl)c(Cl)c1)OCc1cccc(Oc2ccc(Cl)cc2)n1 0.0002

Return reported LC50 TBW C (contact); argument: CC(C)C(=Nc1ccc(F)c(Cl)c1)OCc1cccc(Oc2ccc(Cl)cc2)c1 0.0005

Return reported LC50 TBW C (contact); argument: CC(C)C(=Nc1ccc2c(c1)OC(F)(F)O2)OCc1ccc(F)c(Oc2ccccc2)c1 0.00017

Return reported LC50 TBW C (contact); argument: CC(C)C(=Nc1ccc(F)c(I)c1)OCc1ccc(F)c(Oc2ccc(Cl)cc2)c1 0.0005

Return reported LC50 TBW C (contact); argument: FC(F)(F)c1ccc(N=C(OCc2cccc(Oc3ccccc3)c2)C(Cl)Cl)cc1 0.03

Return reported LC50 TBW C (contact); argument: FC(F)(F)Oc1ccc(N=C(OCc2cccc(Oc3ccccc3)c2)C(Cl)Cl)cc1 0.1

Return reported LC50 TBW C (contact); argument: CC(C)C(=Nc1ccc(F)c(F)c1)OCc1ccc(F)c(Oc2ccc(Cl)cc2)c1 0.0005

Return reported LC50 TBW C (contact); argument: CC(C)C(=Nc1ccc(F)c(Cl)c1)OCc1cccc(Oc2ccc(F)cc2)c1 0.0005

Return reported LC50 TBW C (contact); argument: CC(C)C(=Nc1ccc(Cl)c(C(F)(F)F)c1)OCc1cccc(Oc2ccccc2)c1 0.0008

Return reported LC50 TBW C (contact); argument: CC(C)C(=Nc1ccc2c(c1)OCO2)OCc1ccc(F)c(Oc2ccccc2)c1 0.001

Return reported LC50 TBW C (contact); argument: CC(C)C(=Nc1ccc2c(c1)OC(F)(F)O2)OCc1ccc(F)c(Oc2ccc(F)cc2)c1 0.0002

Return reported LC50 TBW C (contact); argument: CC(C)C(=Nc1cccc(C(F)(F)F)c1)OCc1ccc(F)c(Oc2ccc(Cl)cc2)c1 0.0007

Return reported LC50 TBW C (contact); argument: CC(C)C(=Nc1cc(F)cc(C(F)(F)F)c1)OCc1cccc(Oc2ccccc2)c1 0.0004

Return reported LC50 TBW C (contact); argument: CC(C)C(=Nc1ccc(F)c(F)c1)OCc1ccc(F)c(Oc2ccccc2)c1 0.0005

Return reported LC50 TBW C (contact); argument: COc1ccccc1N=C(OCc1cccc(Oc2ccccc2)c1)C(C)C 0.05

Return reported LC50 TBW C (contact); argument: CC(C)C(=Nc1ccc2c(c1)OCO2)OCc1cccc(Oc2ccc(F)cc2)c1 0.002

Return reported LC50 TBW C (contact); argument: Cc1ccc(N=C(OCc2cccc(Oc3ccccc3)c2)C(C)C)cc1F 0.0075

Reference source: patent US5045566A
